- System: HOP-92
- Experiment summary: NCI tumour cell line growth inhibition, 48 h
Active and inactive are the calls of the source. No stated cut-off is given here; in the data, active = GI50 up to about 1.1 µM and inactive = higher.
Kindly state GI50 for each of the entries shown.

INSERT INTO assay_data (smiles_str, subject_of_test, property, test_result) VALUES
  ('CCOc1ccc(/N=C(/NC(=O)c2ccccc2)SC)cc1', 'HOP-92', 'GI50', '> 100 µM (inactive)'),
  ('C[C@]12CC[C@H]3[C@@H](CCC4=C[C@@H](N5CCCC5)CC[C@@]43C)[C@@H]1C/C(=C\c1ccncc1)[C@@H]2O', 'HOP-92', 'GI50', '15.9 µM (inactive)'),
  ('CCCCCCCCCC(=O)CC(=O)c1ccc(O)cc1O', 'HOP-92', 'GI50', '27.7 µM (inactive)'),
  ('Cc1cc(NC2=CC(=O)C(=O)c3ccccc32)no1', 'HOP-92', 'GI50', '16.4 µM (inactive)');

Pending compound:
Log: HOP-92, compound `CC(C)=CC(=O)c1[nH]c2ccccc2c1CC(=O)NCCc1cncn1C` , GI50 = 36.4 µM (inactive)

----------
- Test system: SR
- Experiment summary: NCI tumour cell line growth inhibition, 48 h
Active and inactive are the calls of the source. Cut-off read from the data, not from the text of the source: active = GI50 up to about 1.1 µM and inactive = higher.
Valid outcomes are listed here; reply with one: TRUE for active, FALSE for inactive

INSERT INTO results (compound, subject_of_test, category) VALUES
  ('COC(=O)C1=C(C)N(NC(=O)c2cccc(Cl)c2)C(C)(O)C12CCOC2=O (stereo unspecified)', 'SR', 'FALSE'),
  ('CCN(CC)Cc1ccc2cccnc2c1O', 'SR', 'TRUE'),
  ('CCOC(=O)c1ccc(OCc2nc3cc(C(F)(F)F)ccc3nc2-c2ccccc2)cc1', 'SR', 'FALSE'),
  ('O=C(NCCC1([N+](=O)[O-])CCN(C(=O)c2ccccc2)CC1)c1ccccc1', 'SR', 'FALSE'),
  ('O=C1CN(c2ccc(Cl)cc2)C(=O)CN1CCN1CC(=O)N(c2ccc(Cl)cc2)CC1=O', 'SR', 'FALSE'),
  ('Cn1ccc(C(=O)NCCN(CCNC(=O)c2ccn(C)c(=O)c2O)CCNC(=O)c2ccn(C)c(=O)c2O)c(O)c1=O', 'SR', 'FALSE'),
  ('O=c1cnn2c(n1)sc1ccc3ccccc3c12', 'SR', 'FALSE'),
  ('CCN1CCC(O)(/C=C/c2ccccc2C)C(C(=O)/C=C/c2ccccc2C)C1 (stereo unspecified)', 'SR', 'FALSE'),
  ('O=C(c1ccco1)N(C(=S)OCc1ccccn1)c1ccccc1', 'SR', 'FALSE'),
  ('Cc1cn2c(/C=N/NC(=N)N)c(-c3cccc([N+](=O)[O-])c3)nc2s1', 'SR', 'FALSE');

Qu. Status in this test for CC(=O)OCC(OC(C)=O)C(OC(C)=O)C(/C=N\Nc1nc2ccccc2c(=O)[nH]1)=N\Nc1nc2ccccc2c(=O)[nH]1 (stereo unspecified) ?
Ans. FALSE

----------
- System: DMS-114
- Experiment summary: NCI tumour cell line growth inhibition, 48 h
The source made the active and inactive calls. Rule as the data show it: active = GI50 up to about 1.1 µM and inactive = higher.
Kindly state GI50 for each of the entries shown.

Observe how each entry below is paired with its result.
INSERT INTO results (compound, subject_of_test, test_result) VALUES
  ('C=C1CC2(OC1=O)c1ccccc1C=Cc1ccccc12', 'DMS-114', '7.76 µM (inactive)'),
  ('O=C(O)C(C(=O)O)P(=S)(S)c1ccccc1 (stereo not given)', 'DMS-114', '> 100 µM (inactive)'),
  ('CN(C)[C@@H]1C(O)=C(C(=O)NCNCCCC(=O)O)C(=O)[C@@]2(O)C(O)=C3C(=O)c4c(O)cccc4[C@@](C)(O)[C@H]3C[C@@H]12', 'DMS-114', '> 100 µM (inactive)'),
  ('Cn1c2c([N+](=O)[O-])cccc2c(=O)c2c(O)cc3c(c21)C=CC(C)(C)O3', 'DMS-114', '22.8 µM (inactive)'),
  ('N#CC(C#N)=C(N)/C(C#N)=C/c1ccc2[nH]ccc2c1', 'DMS-114', '> 100 µM (inactive)'),
  ('CCOc1ccc(NC2=NC(=O)C(CC(=O)Nc3ccccc3[N+](=O)[O-])S2)cc1 (stereo not given)', 'DMS-114', '> 100 µM (inactive)');

Lab note: each compound below needs its GI50 filled in.
1. O=C(NC1C(O)C(O)C(CO)OC1n1cc(F)c(=O)[nH]c1=O)OCc1ccccc1 (stereo not given)
2. Cn1nc(-c2ccccc2)c(C(=O)/C=C/c2ccccc2)c(N2CCCCC2)c1=O

Ans.
> 100 µM (inactive)
> 100 µM (inactive)

Lab note: each compound below needs its GI50 filled in.
1. CCC12C=CCN3CCC4(C(=C(C(=O)OC)C1)Nc1ccccc14)[C@H]32 (stereo not given in full)
2. CC(C)NC(C)Cc1ccccc1 (stereo not given)

Ans.
19.2 µM (inactive)
> 100 µM (inactive)

src = ChEMBL document CHEMBL1201862
